# assay-procedure: Plasma concentration in Swiss Albino mouse at 50 mg/kg, ip after 12 hrs
# Type: ADME, organism-based
reported-endpoint: concentration at 12 h (nM)
Your answer is read as nM, so omit the unit and give the number.

Task: Give the measured concentration at 12 h for Cc1cc(Nc2ncc(Cl)c(Nc3ccccc3S(=O)(=O)C(C)C)n2)c(OC(C)C)cc1C1CCN(CC(=O)NCCNc2cccc3c2C(=O)N(C2CCC(=O)NC2=O)C3=O)CC1 (stereo unspecified)
Result: 340

----------
# assay-procedure: Plasma concentration in Swiss Albino mouse at 50 mg/kg, ip after 2 hrs
# Type: ADME, organism-based
reported-endpoint: concentration at 2 h (nM)
Your answer is read as nM, so omit the unit and give the number.

Task: Give the measured concentration at 2 h for Cc1cc(Nc2ncc(Cl)c(Nc3ccccc3S(=O)(=O)C(C)C)n2)c(OC(C)C)cc1C1CCN(CC(=O)NCCNc2cccc3c2C(=O)N(C2CCC(=O)NC2=O)C3=O)CC1 (stereo unspecified)
Result: 3000

----------
Reported Kd, ALK tyrosine kinase receptor (Homo sapiens, UniProt Q9UM73).
Be sure to follow the number with its unit.

Task: Give the measured Kd for Cc1cc(Nc2ncc(Cl)c(Nc3ccccc3S(=O)(=O)C(C)C)n2)c(OC(C)C)cc1C1CCN(CC(=O)NCCOCCOCCOCCOCCOCCNc2cccc3c2C(=O)N(C2CCC(=O)N(C)C2=O)C3=O)CC1 (configuration not stated)
Result: 54 nM

Task: Give the measured Kd for Cc1cc(Nc2ncc(Cl)c(Nc3ccccc3S(=O)(=O)C(C)C)n2)c(OC(C)C)cc1C1CCN(CC(=O)NCCNc2cccc3c2C(=O)N(C2CCC(=O)N(C)C2=O)C3=O)CC1 (configuration not stated)
Result: 78 nM
